- Study Target: pCdc25C (Homo sapiens)
- Assay Details: NMR titration
- Settings: phospho-T5 of peptide (pT48)
Measured Metric: Kd (µM)
Give the number; µM is assumed, so skip it.

Q: Please look at this binder and report its Kd: ADEEKLPPGWEKRMSRSSGRVYYFNHITNASQWERPSGNSS [Pin1 (WW domain site, full-length Pin1) WW, Q13526]
Result: 6
